target: ScHof1; test: SPOT peptide array binding signal intensity (averaged, normalized) (arbitrary units (background-subtracted, floor 0; scale differs between SH3 domains)); higher = stronger binding of the SH3 domain to the peptide
endpoint-label: SPOT peptide array binding signal intensity
Write the value as a bare number.

The recorded SPOT peptide array binding signal intensity for entry `NFFRKKLGIPRKLKR` equals 1.25

The recorded SPOT peptide array binding signal intensity for entry `LSKRLPLRFPEHTSS` equals 4.25

The recorded SPOT peptide array binding signal intensity for entry `NGRRRPKFRVQLSGN` equals 6.5

The recorded SPOT peptide array binding signal intensity for entry `QRKSLRRPTLSKPAV` equals 0.5

The recorded SPOT peptide array binding signal intensity for entry `HGKRRAPLLLAKLDV` equals 0.5

The recorded SPOT peptide array binding signal intensity for entry `RSKRLFPVRPMATAH` equals 1

The recorded SPOT peptide array binding signal intensity for entry `LLGRKRPVMERVVDI` equals 1

The recorded SPOT peptide array binding signal intensity for entry `KNRKNLPTIPIRLSG` equals 3

The recorded SPOT peptide array binding signal intensity for entry `SLSRRRFSLPSMPNV` equals 3

The recorded SPOT peptide array binding signal intensity for entry `NENKKLPPAPTVFGL` equals 6

The recorded SPOT peptide array binding signal intensity for entry `GLRRARYKFPGQQKI` equals 1.5

The recorded SPOT peptide array binding signal intensity for entry `NTMKKRPAPPSLPSL` equals 19.5

The recorded SPOT peptide array binding signal intensity for entry `GPPPPLPPPLFPSSS` equals 1900

The recorded SPOT peptide array binding signal intensity for entry `RRRIAYPFYPFKKLG` equals 0.5

The recorded SPOT peptide array binding signal intensity for entry `FSRRQSMDIPSKNRN` equals 2

The recorded SPOT peptide array binding signal intensity for entry `RKQRSIPLSPIVPES` equals 0.5

The recorded SPOT peptide array binding signal intensity for entry `RMVRRRPLRVQFSAR` equals 12
